- assay_details: Plasma pharmacokinetics, Arm II (oral BID), phase 1 trial
- Assay type: in vivo, human
- assay_conditions: human, plasma, po, 60 mg, Arm II PO BID 60 mg, day 1, N=3; read-out: Cmax
recorded_endpoint: Cmax (ng/mL)
Numbers only; they are read as ng/mL.

Problem: Field request: Cmax | item: Nc1ncc(-c2cnn(CCO)c2)c2scc(-c3ccc(NC(=O)Nc4cccc(F)c4)cc3)c12 [ilorasertib, Ilorasertib]
Result: 380

----------
- assay_details: Plasma pharmacokinetics, Arm III (i.v. infusion), phase 1 trial
- Format: in vivo, human
- assay_conditions: human, plasma, iv, 8 mg, Arm III i.v. infusion 8 mg, day 1, N=3
recorded_endpoint: AUC(0-inf) (µg·h/mL)
Output spec: scalar in µg·h/mL, unitless text.

Problem: Requested read-out: AUC(0-inf). Entry: Nc1ncc(-c2cnn(CCO)c2)c2scc(-c3ccc(NC(=O)Nc4cccc(F)c4)cc3)c12
Result: 2.19

----------
- assay_details: Plasma pharmacokinetics, Arm II (oral BID), phase 1 trial
- Format: in vivo, human
- assay_conditions: human, plasma, po, 340 mg, Arm II PO BID 340 mg, day 15, N=1; read-out: Cmax
recorded_endpoint: Cmax (ng/mL)
Number only, in ng/mL; omit the unit.

Problem: What measured Cmax goes with Nc1ncc(-c2cnn(CCO)c2)c2scc(-c3ccc(NC(=O)Nc4cccc(F)c4)cc3)c12 ?
Result: 770

----------
- assay_details: Plasma pharmacokinetics, Arm III (i.v. infusion), phase 1 trial
- Format: in vivo, human
- assay_conditions: human, plasma, iv, Arm III i.v. infusion all doses, day 1, N=6; read-out: t1/2 (harmonic mean) (converted)
recorded_endpoint: half-life (h)
Supply the numeric figure in h, leaving out any unit text.

Problem: Look up half-life for this molecule: Nc1ncc(-c2cnn(CCO)c2)c2scc(-c3ccc(NC(=O)Nc4cccc(F)c4)cc3)c12
Result: 9.1

----------
- assay_details: Plasma pharmacokinetics, Arm II (oral BID), phase 1 trial
- Assay type: in vivo, human
- assay_conditions: human, plasma, po, 130 mg, Arm II PO BID 130 mg, day 15, N=3
recorded_endpoint: AUC(0-t) (ng·h/mL)
The reply should be a number in ng·h/mL, with the unit left off.

Problem: Consider the compound Nc1ncc(-c2cnn(CCO)c2)c2scc(-c3ccc(NC(=O)Nc4cccc(F)c4)cc3)c12 [ilorasertib, Ilorasertib] and give its measured AUC(0-t).
Result: 2400

----------
- assay_details: Plasma pharmacokinetics, Arm II (oral BID), phase 1 trial
- Type: in vivo, human
- assay_conditions: human, plasma, po, 90 mg, Arm II PO BID 90 mg, day 15, N=3
recorded_endpoint: AUC(0-t) (ng·h/mL)
Give the quantity in ng·h/mL, number only.

Problem: Suppose we examine the compound Nc1ncc(-c2cnn(CCO)c2)c2scc(-c3ccc(NC(=O)Nc4cccc(F)c4)cc3)c12 [ilorasertib, Ilorasertib] ; what AUC(0-t) value has been reported?
Result: 4060

----------
- assay_details: Plasma pharmacokinetics, Arm III (i.v. infusion), phase 1 trial
- Assay type: in vivo, human
- assay_conditions: human, plasma, iv; Arm III i.v. infusion 8 mg, day 1, N=4
recorded_endpoint: Tmax (h)
Quick reminder: number only, in h, skip the unit.

Problem: Fill in the blank: the reported Tmax of Nc1ncc(-c2cnn(CCO)c2)c2scc(-c3ccc(NC(=O)Nc4cccc(F)c4)cc3)c12 is ____.
Result: 2
